Reported values of TGI for individual entries
System: RXF 393 renal
Experiment: NCI tumour cell line growth inhibition, 48 h
measurement name: TGI

# compound, test system, value
measured = [
    ("CCOC(=O)C(=O)N1C(C)=C(C(=O)OCC)CC(C(=O)OCC)=C1C", "RXF 393 renal", "> 100 µM"),
    ("COc1ccc(CN2CCCC(C(=O)c3ccc(C(F)(F)F)cc3)C2)c(O)c1 (stereo not given)", "RXF 393 renal", "71.9 µM"),
    ("O=C(/C=C(\\[O-])c1ccccc1)CCCCCCC(=O)/C=C(\\[O-])c1ccccc1.O=C(/C=C(\\[O-])c1ccccc1)CCCCCCC(=O)/C=C(\\[O-])c1ccccc1.O=C(/C=C(\\[O-])c1ccccc1)CCCCCCC(=O)/C=C(\\[O-])c1ccccc1.[La+3].[La+3]", "RXF 393 renal", "> 50 µM"),
    ("C#CC(C)(C)Oc1cc(O)c2c(=O)c3ccccc3n(C)c2c1", "RXF 393 renal", "> 100 µM"),
    ("Cn1c(-c2nonc2N)nc2cnccc21", "RXF 393 renal", "> 25 µM"),
]

* * *

Test system: MDA-MB-231 breast
Test: NCI tumour cell line growth inhibition, 48 h
Reported values of GI50 for individual entries
measurement name: GI50

# molecule smiles, test system, measurement name, value
rows = [
    ("Cn1cc(C2=C(c3ccc(OC[C@@H](O)CO)cc3)C(=O)NC2=O)c2ccccc21", "MDA-MB-231 breast", "GI50", "> 25 µM"),
    ("CNC(=O)c1cc(Oc2ccc3c(c2)sc2nc(-c4ccc(N)cc4)cn23)ccn1", "MDA-MB-231 breast", "GI50", "0.726 µM"),
    ("COc1cccc(-c2nn(-c3ccccc3)cc2-c2ccnc(NCCCNS(=O)(=O)c3cccc(F)c3)c2)c1", "MDA-MB-231 breast", "GI50", "3.43 µM"),
    ("COC(=O)c1c2c(c(C)[n+]([O-])c1C)C(=O)C=CC2=O", "MDA-MB-231 breast", "GI50", "2.68 µM"),
    ("COc1ccc(-n2cc(-c3ccc(OC)c(OC)c3)[nH]c2=S)cc1Cl", "MDA-MB-231 breast", "GI50", "61.4 µM"),
    ("N#Cc1c(O)c2c(c(O)c1C#N)C(=O)c1ccccc1C2=O", "MDA-MB-231 breast", "GI50", "2.01 µM"),
    ("O=[n+]1c(CBr)c(CBr)n([O-])c2ccccc21", "MDA-MB-231 breast", "GI50", "11.9 µM"),
    ("ClCc1ccccc1CSc1ncnc2nc[nH]c12", "MDA-MB-231 breast", "GI50", "> 60 µM"),
    ("NS(=O)(=O)c1ccc(-n2nc(-c3ccc(Br)cc3)ccc2=O)cc1", "MDA-MB-231 breast", "GI50", "> 10 µM"),
    ("Clc1cccc(NC=Nc2ccc(-c3nc4ccccc4s3)cc2)c1", "MDA-MB-231 breast", "GI50", "9.72 µM"),
]

* * *

Reported values of TGI for individual entries
Tested on: UACC-257 melanoma
Experiment: NCI tumour cell line growth inhibition, 48 h

# compound, TGI
rows = [
    ("COC(=O)C1CC(C=[N+](C)C)=C(SC)N1 (stereo not given)", "> 100 µM"),
    ("C=C1CC(OC)(C(O)C(=O)N[C@H]2OCO[C@H]3C2O[C@H](C[C@@H](COC)OC)C(C)(C)C3OC)O[C@H](C)[C@@H]1C (stereo not given in full)", "< 0.00482 µM"),
    ("CC1=C[C@@H]2Cc3occc3C(C)(C)[C@@H]2CC1", "44.7 µM"),
    ("N#Cc1c2c(c(Nc3ccc(F)cc3)n3c1nc1ccccc13)CCC2", "24.1 µM"),
    ("Cn1c(-c2nonc2N)nc2cnccc21", "> 25 µM"),
    ("CN(C)c1ccc2c(c1)oc(=O)c1ccccc12", "28.3 µM"),
    ("Cc1ccc(C(=O)Nc2ccc(CP(=O)(O)O)cc2)cc1NC(=O)c1cccc(NC(=O)Nc2cccc(C(=O)Nc3cc(C(=O)Nc4ccc(CP(=O)(O)O)cc4)ccc3C)c2)c1", "> 100 µM"),
    ("O=c1[nH]c(=O)n(C2CC(O)C(CO)O2)cc1C#Cc1c(F)c(F)c(F)c(F)c1F (stereo not given)", "> 100 µM"),
    ("O=C1/C(=C/c2ccc(F)cc2)CNC/C1=C\\c1ccc(F)cc1", "28 µM"),
    ("CCC1CCC2CCCC(C)N12 (stereo not given)", "> 100 µM"),
    ("CC(C)(CO)N1C(=O)c2ccccc2C1(O)c1ccc(Cl)cc1 (stereo not given)", "> 100 µM"),
    ("CC1=CCCC(OC(N)=O)C1 (stereo not given)", "> 100 µM"),
    ("C[C@]12CC/C(=N\\O)C=C1CC[C@@H]1[C@@H]2CC[C@]2(C)C(=N/O)/C(=C/c3cccnc3)C[C@@H]12", "57.2 µM"),
    ("O=C(O[C@H](/C=C/c1ccccc1)P1(=O)N(Cc2ccccc2)[C@@H]2CCCC[C@H]2N1Cc1ccccc1)c1ccccc1", "> 100 µM"),
    ("COc1cc2c(cc1OC)C(=O)/C(=C/c1cc(C)c(O)c(C)c1)C2", "> 100 µM"),
]

* * *

Reported values of GI50 for individual entries
Test system: TK-10 renal
Experiment: NCI tumour cell line growth inhibition, 48 h
measurement name: GI50

# molecule smiles, value
rows = [
    ("Cc1c(N2C(=O)/C(=C\\c3ccccc3O)N=C2c2ccccc2)c(=O)n(-c2ccccc2)n1C", "33.4 µM"),
    ("CN1CCN(Cc2ccc(NC(=O)c3cncc(C#Cc4cnc(N)c5ccccc45)c3)cc2C(F)(F)F)CC1", "0.466 µM"),
    ("COc1cc2c(c(OC)c1OC)-c1ccc(NCc3ccccc3)c(=O)cc1[C@@H](NC(C)=O)CC2", "4.82 µM"),
    ("O=C1c2ccccc2C(=O)c2c1ccc1[nH]c(CCl)nc21", "2.91 µM"),
    ("COc1ccc(CNC(=O)COc2ccc(/C=N/Nc3nc4ccccc4s3)cc2)cc1", "3.49 µM"),
    ("Clc1cccc(NC=Nc2ccc(-c3nc4ccccc4s3)cc2)c1", "21 µM"),
    ("NNC(=O)c1cnn(-c2ccnc3c(C(F)(F)F)cccc23)c1N", "> 100 µM"),
    ("O=[n+]1c(CBr)c(CBr)n([O-])c2ccccc21", "1.97 µM"),
]

* * *

Tested on: U251 CNS
Assay: NCI tumour cell line growth inhibition, 48 h

# molecule, test system, TGI
measured = [
    ("CC1CC(C#N)=C2NCCCCN2C1=O (stereo unspecified)", "U251 CNS", "> 100 µM"),
    ("C(=Nc1ccc(-c2nc3ccccc3s2)cc1)c1ccco1", "U251 CNS", "> 100 µM"),
    ("O=C1/C(=C/c2ccc([N+](=O)[O-])cc2)CNC/C1=C\\c1ccc([N+](=O)[O-])cc1", "U251 CNS", "1.67 µM"),
    ("O=C(O)c1ccc(NS(=O)(=O)Cc2ccccc2)cc1", "U251 CNS", "> 100 µM"),
    ("Cn1c(-c2nonc2N)nc2cnccc21", "U251 CNS", "> 25 µM"),
    ("CCCNC(=O)OCc1c(COC(=O)NCCC)c(-c2ccc(Cl)c(Cl)c2)n2c1CCC2", "U251 CNS", "28.9 µM"),
    ("Cc1cccc(N(CCC#N)S(=O)(=O)c2ccccc2)c1", "U251 CNS", "> 100 µM"),
    ("CN1CCN(C(=S)N(C)C(=O)c2ccc(Cl)cc2)CC1", "U251 CNS", "> 100 µM"),
    ("COc1ccc(CN2CCCC(C(=O)c3ccc(C(F)(F)F)cc3)C2)c(O)c1 (stereo unspecified)", "U251 CNS", "> 100 µM"),
    ("Cc1cc(C)c2c(n1)S(=O)(=O)N(CCCN1CCN(c3cccc(C(F)(F)F)c3)CC1)/C(=C(\\O)c1ccc(Cl)cc1)C2=O", "U251 CNS", "14.3 µM"),
    ("CN1CN(c2ccccc2)C2(CCN(CCCC3(c4cccs4)OCCO3)CC2)C1=O", "U251 CNS", "> 100 µM"),
]

* * *

Test system: NCI/ADR-RES ovarian
Assay: NCI tumour cell line growth inhibition, 48 h
Reported values of TGI for individual entries

# molecule smiles, TGI
records = [
    ("CCOP(=O)(OCC)/C(F)=C/c1ccccc1", "> 100 µM"),
    ("COc1cccc(-c2nn(-c3ccccc3)cc2-c2ccnc(NCCCNS(=O)(=O)c3cccc(F)c3)c2)c1", "> 100 µM"),
    ("O=c1c(Cl)c(Cl)cnn1-c1ccccc1", "3.97 µM"),
    ("O=C(Cc1ccc(/C=C/C(=O)c2ncc[nH]2)cc1)Nc1ccc(Cl)cc1", "> 25 µM"),
    ("N#Cc1c(OCCF)c2ccccc2n2c1nc1ccccc12", "> 100 µM"),
    ("O=C1NC(=S)NC(=O)C1C(c1ccccc1[N+](=O)[O-])C1C(=O)NC(=S)NC1=O", "> 100 µM"),
    ("O=C1OC[C@@H]2Cc3c([nH]c4ccccc34)[C@@H](c3ccc(O)cc3)N12", "> 100 µM"),
    ("Clc1cccc(NC=Nc2ccc(-c3nc4ccccc4s3)cc2)c1", "32 µM"),
    ("O=[n+]1c(CBr)c(CBr)n([O-])c2ccccc21", "33.7 µM"),
    ("CCOC(=O)c1cnc2[nH]ccn2c1=O", "> 10 µM"),
    ("N#Cc1c2c(c(Nc3ccc(F)cc3)n3c1nc1ccccc13)CCC2", "25 µM"),
]
